Values from patent US20250177566A1

Test system: CXCR4
Test description: CXCR4 mRNA activation in HCT116 stably expressing dCas9 and MS2-FKBP*x2, qRT-PCR
Type: cell-based, human
Settings: FIG. 2C; 5 nM; 48 hrs
Metric name: fold change, CXCR4 mRNA (Treated vs Non-Treated) (fold)
Entry rule: numbers only, all in fold.

The following compounds have reported results that may help.
Compound	Endpoint value
CC[C@H](C(=O)N1CCCC[C@H]1C(=O)O[C@H](CCc1ccc(OC)c(OC)c1)c1cccc(OCC(=O)NCCOCCOCCOCCOCCNC(=O)C[C@@H]2N=C(c3ccc(Cl)cc3)c3c(sc(C)c3C)-n3c(C)nnc32)c1)c1cc(OC)c(OC)c(OC)c1	11.1
CC[C@H](C(=O)N1CCCC[C@H]1C(=O)O[C@H](CCc1ccc(OC)c(OC)c1)c1cccc(OCC(=O)NCCOCCOCCOCCOCCOCCOCCOCCNC(=O)C[C@@H]2N=C(c3ccc(Cl)cc3)c3c(sc(C)c3C)-n3c(C)nnc32)c1)c1cc(OC)c(OC)c(OC)c1	12.6
CC[C@H](C(=O)N1CCCC[C@H]1C(=O)O[C@H](CCc1ccc(OC)c(OC)c1)c1cccc(OCC(=O)NCCOCCOCCOCCOCCOCCOCCNC(=O)C[C@@H]2N=C(c3ccc(Cl)cc3)c3c(sc(C)c3C)-n3c(C)nnc32)c1)c1cc(OC)c(OC)c(OC)c1	8.5
CC[C@H](C(=O)N1CCCC[C@H]1C(=O)O[C@H](CCc1ccc(OC)c(OC)c1)c1cccc(OCC(=O)NCCOCCOCCOCCNC(=O)C[C@@H]2N=C(c3ccc(Cl)cc3)c3c(sc(C)c3C)-n3c(C)nnc32)c1)c1cc(OC)c(OC)c(OC)c1	11.5
CC[C@H](C(=O)N1CCCC[C@H]1C(=O)O[C@H](CCc1ccc(OC)c(OC)c1)c1cccc(OCC(=O)NCCOCCOCCNC(=O)C[C@@H]2N=C(c3ccc(Cl)cc3)c3cc(OC)ccc3-n3c(C)nnc32)c1)c1cc(OC)c(OC)c(OC)c1	5.8

# query: fold change, CXCR4 mRNA (Treated vs Non-Treated) | item `CC[C@H](C(=O)N1CCCC[C@H]1C(=O)O[C@H](CCc1ccc(OC)c(OC)c1)c1cccc(OCC(=O)NCCOCCOCCOCCNC(=O)C[C@@H]2N=C(c3ccc(Cl)cc3)c3cc(OC)ccc3-n3c(C)nnc32)c1)c1cc(OC)c(OC)c(OC)c1` | system: CXCR4 3.5

What do you have for `CC[C@H](C(=O)N1CCCC[C@H]1C(=O)O[C@H](CCc1ccc(OC)c(OC)c1)c1cccc(OCC(=O)NCCOCCOCCOCCOCCOCCOCCNC(=O)C[C@@H]2N=C(c3ccc(Cl)cc3)c3cc(OC)ccc3-n3c(C)nnc32)c1)c1cc(OC)c(OC)c(OC)c1` ? 8.8

Please give the result for COc1ccc2c(c1)C(c1ccc(Cl)cc1)=N[C@@H](CC(=O)NCc1cn(CCOCCOCCOCCNC(=O)CCSCCC[C@@H]3/C=C(\C)C[C@H](C)C[C@H](OC)[C@H]4O[C@@](O)(C(=O)C(=O)N5CCCC[C@H]5C(=O)O[C@H](/C(C)=C/[C@@H]5CC[C@@H](O)[C@H](OC)C5)[C@H](C)[C@@H](O)CC3=O)[C@H](C)C[C@@H]4OC)nn1)c1nnc(C)n1-2 [CEM87, reference compound] too. 1.5

Field entry: `CC[C@H](C(=O)N1CCCC[C@H]1C(=O)O[C@H](CCc1ccc(OC)c(OC)c1)c1cccc(OCC(=O)NCCOCCOCCOCCOCCOCCOCCOCCNC(=O)C[C@@H]2N=C(c3ccc(Cl)cc3)c3cc(OC)ccc3-n3c(C)nnc32)c1)c1cc(OC)c(OC)c(OC)c1` 13.9

# repeat for `CC[C@H](C(=O)N1CCCC[C@H]1C(=O)O[C@H](CCc1ccc(OC)c(OC)c1)c1cccc(OCC(=O)NCCOCCOCCOCCOCCOCCNC(=O)C[C@@H]2N=C(c3ccc(Cl)cc3)c3cc(OC)ccc3-n3c(C)nnc32)c1)c1cc(OC)c(OC)c(OC)c1` 7.2

Try this compound next: `CC[C@H](C(=O)N1CCCC[C@H]1C(=O)O[C@H](CCc1ccc(OC)c(OC)c1)c1cccc(OCC(=O)NCCOCCOCCOCCOCCOCCNC(=O)C[C@@H]2N=C(c3ccc(Cl)cc3)c3c(sc(C)c3C)-n3c(C)nnc32)c1)c1cc(OC)c(OC)c(OC)c1` 12.0
